SYSTEM: T1, human PLD4 (phospholipase D4) protein (human, UniProt Q96BZ4 1-506)
T1 construct: Type II transmembrane protein, 506 a.a; also called hPLD4; HuPLD4
T1 sequence: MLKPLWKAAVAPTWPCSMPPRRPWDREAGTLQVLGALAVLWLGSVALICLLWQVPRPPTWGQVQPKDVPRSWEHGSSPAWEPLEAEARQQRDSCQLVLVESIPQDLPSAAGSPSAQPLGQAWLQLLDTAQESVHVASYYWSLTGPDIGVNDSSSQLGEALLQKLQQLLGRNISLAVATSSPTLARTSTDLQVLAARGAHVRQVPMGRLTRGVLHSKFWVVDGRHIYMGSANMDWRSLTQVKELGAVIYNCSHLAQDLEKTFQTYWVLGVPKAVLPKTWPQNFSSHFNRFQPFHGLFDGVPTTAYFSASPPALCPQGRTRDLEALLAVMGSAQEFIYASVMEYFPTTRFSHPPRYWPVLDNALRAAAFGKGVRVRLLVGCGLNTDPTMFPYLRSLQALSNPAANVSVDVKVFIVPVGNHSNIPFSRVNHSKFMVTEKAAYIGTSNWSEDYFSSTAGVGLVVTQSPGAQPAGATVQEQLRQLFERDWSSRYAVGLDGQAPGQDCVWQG
PROCEDURE_TEXT: FACS titration (0.001 to 30 µg/mL) of purified antibody on human PLD4-CT125 cells, positive cell frequency fitted with GraphPad Prism (FIG. 19)
Procedure: For binding ability of the purified antibody, human PLD4-CT125 expression stable cell strain was reacted to nearly 100% of the positive staining rate at low concentration to high concentration (0.001 μg/mL to 30 μg/mL) of purified PLD4 antibody concentration. The frequency of staining positive cell and the antibody were data-analyzed using Graph Pad Prism version 5 software, and the dissociation constant molar concentration (Kd value) was computed in nM unit.
pKd: −log10 of the molar value.
OBSERVED_PROPERTY: pKd

BINDER | pKd
anti-PLD4 mouse 13D4 antibody (antibody, mouse IgG2b, V domains shown, Tested as hybridoma culture supernatant and as purified antibody; also called mp13D4 (hybridoma)) VH: DVQLQESGPGLVKPSQSLSLTCSVTGYSITSHYYWTWIRQFPGNKLEWMGYISYDGSNNYNPSLKNRISITRDTSKNQFFLKLNSVTTEDTATYNCAREGPLYYGNPYWYFDVWGAGTTVTVSS VL: DIQMTQTTSSLSASLGDRVTISCRASQDIDNYLNWYQQKPDGTVKLLIYYTSRLHSGVPSRFSGSGSGTDYSLTISNLEQEDVATYFCQQFNTLPRTFGGGTKLEIKR | ≥ 9.00
anti-PLD4 mouse 11D10 antibody (antibody, mouse IgG2b, V domains shown, Tested as hybridoma culture supernatant and as purified antibody) VH: EVQLVESGGDLVRPGGSLKLSCAASGFSFSSYGMSWFRQTPDKRLEWVATISSGGSYIYYPESVKGRFTISRDNARNILYLQMSSLKSEDTAMYYCVRLYGGRRGYGLDYWGQGTSVTVSS VL: EIVMTQAAFSNPVTLGTSASISCRSSKSLLHSDGITYLYWYLQKPGQSPQLLIYQMSNLASGVPDRFSSSGSGTDFTLRISRVEAEDVGVYYCAQNLELYTFGGGTKLEIKR | ≥ 9.00

Query binder follows.
[in] Name the recorded pKd of the item anti-PLD4 mouse 14C1 antibody (antibody, mouse IgG1, V domains shown, Tested as hybridoma culture supernatant and as purified antibody) VH: DVQLQESGPGLVKPSQSLSLTCSVTGYSISSHYYWSWIRQFPGNRLEWMGYISYDGSNNYNPSLKNRISITRDTSKNQFFLKLNSVTTEDTATYNCAREGPLYYGNPYWYFDVWGAGTTVTVSS VL: DIQMTQTTSSLSASLGGSVTISCRASQDIDNYLNWYQQKPDGTVKLLIYYTSRLHSGVPSRFSGSGSGTDYSLTISNLEQEDIATYFCQQFNTLPRTFGGGTKLEIKR in your answer.
[out] < 9.00
